The measurements presented in this section are drawn from BindingDB's records for doi:10.1016/j.ejmech.2020.112602.

# test: Inhibition of human Cx26 expressed in Escherichia coli LB2003 cells in medium containing 4 mM K+ and 500 uM IPTG by measuring cell growth after 18 hrs by plate reader
pIC50: −log10 of the molar value.
Binary call on pIC50: YES from 5 upward, NO beneath that.

{"entry_smiles": "CCCCCCCCCCCC(=O)NC[C@H]1O[C@H](O[C@H]2[C@H](O)[C@@H](O[C@H]3O[C@H](CO)[C@@H](O)[C@H](N)[C@H]3O)[C@H](N)C[C@@H]2N)[C@H](O)[C@@H](O)[C@@H]1O", "group_label": "NO"}
{"entry_smiles": "NC[C@H]1O[C@H](O[C@H]2[C@H](O)[C@@H](O[C@H]3O[C@H](COc4ccc(Cl)cc4)[C@@H](O)[C@H](N)[C@H]3O)[C@H](N)C[C@@H]2N)[C@H](O)[C@@H](O)[C@@H]1O", "group_label": "NO"}
{"entry_smiles": "Cc1ccc(OC[C@H]2O[C@H](O[C@@H]3[C@@H](O)[C@H](O[C@H]4O[C@H](CN)[C@@H](O)[C@H](O)[C@H]4O)[C@@H](N)C[C@H]3N)[C@H](O)[C@@H](N)[C@@H]2O)cc1", "group_label": "NO"}
{"entry_smiles": "N[C@@H]1[C@@H](O)[C@@H](O[C@@H]2[C@@H](O)[C@H](O[C@H]3O[C@H](CNC(=O)CCCc4cc5ccc6cccc7ccc(c4)c5c67)[C@@H](O)[C@H](O)[C@H]3O)[C@@H](N)C[C@H]2N)O[C@H](CO)[C@H]1O", "group_label": "NO"}
{"entry_smiles": "NC[C@H]1O[C@H](O[C@H]2[C@H](O)[C@@H](O[C@H]3O[C@H](COc4ccc(-c5nc6ccccc6[nH]5)cc4)[C@@H](O)[C@H](N)[C@H]3O)[C@H](N)C[C@@H]2N)[C@H](O)[C@@H](O)[C@@H]1O", "group_label": "YES"}
